- Test system: MDA-MB-231
- Assay Name: Cytotoxicity against human MDA-MB-231 cells at 50 uM by MTT assay
- Type: functional
Active and inactive are the calls of the source. The rule behind the calls is not given here.
Observed Property: Activity

>>> assay_value("Oc1ccc(/N=C/c2ccc(O)c(O)c2)cc1")
"65%"
>>> assay_value("Oc1ccc(/C=C/c2cc(O)cc(O)c2)cc1")
"40%"
>>> assay_value("Oc1ccc(/C=N/c2ccc(F)cc2)cc1O")
"Active"
>>> assay_value("COc1ccc(/N=C/c2ccc(O)c(O)c2)cc1")
"Active"
>>> assay_value("Oc1ccc(/C=N/c2ccc(Cl)cc2)cc1O")
"Active"
>>> assay_value("Cc1ccc(/N=C/c2ccc(O)c(O)c2)cc1")
"65%"

The measurements presented in this section are drawn from ChEMBL document CHEMBL2321714.
